These measurements were taken from the kinase profiling compilation of Christmann-Franck et al. (2016).

Biological target: TSSK1B (human) (UniProt Q9BXA7)
Sequence (Q9BXA7 whole entry, looked up): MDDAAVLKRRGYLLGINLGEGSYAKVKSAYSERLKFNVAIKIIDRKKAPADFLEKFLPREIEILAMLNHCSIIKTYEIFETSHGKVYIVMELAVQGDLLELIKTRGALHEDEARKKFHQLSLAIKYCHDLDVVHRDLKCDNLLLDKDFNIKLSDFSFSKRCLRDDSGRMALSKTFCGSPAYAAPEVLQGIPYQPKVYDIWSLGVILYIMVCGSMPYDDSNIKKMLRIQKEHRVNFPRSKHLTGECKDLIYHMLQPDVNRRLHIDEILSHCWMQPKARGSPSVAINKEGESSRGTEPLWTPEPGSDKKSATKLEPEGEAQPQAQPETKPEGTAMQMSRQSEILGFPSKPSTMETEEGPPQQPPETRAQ
Experiment: radiometric filter-binding kinase assay
Details: compound 10.0 µM
Parameter: residual activity (%)
Give the value, in units of %, as a plain number.

molecule `CCNc1nc(Nc2cc(F)c(C(=O)N3CCOCC3)cc2OC)ncc1C(F)(F)F` , residual activity observed: 3

molecule `Cc1ccc(=O)n(-c2ccccc2)c1` , residual activity observed: 91

molecule `CCn1c(-c2nonc2N)nc2cncc(CNC3CCNCC3)c21` , residual activity observed: 42

molecule `Cc1ccc(-c2ccc3c(ccc4sc5c(c43)NC[C@@H](C)NC5=O)n2)cn1` , residual activity observed: 89

molecule `COc1cc(C(=O)N2CCOCC2)c(F)cc1Nc1ncc(C(F)(F)F)c(NC2CC2)n1` , residual activity observed: 7

molecule Nc1cccc2c1CN(C1CCC(=O)NC1=O)C2=O (centres undefined) , residual activity observed: 100

molecule `CC(C)(C#N)c1ccc(N2C(=O)OCc3cnc4ccc(-c5cnc6ccccc6c5)cc4c32)cc1` , residual activity observed: 103

molecule `NCC(=O)Nc1ccc(-n2nc(C(F)(F)F)cc2-c2ccc3c(ccc4ccccc43)c2)cc1` , residual activity observed: 83

molecule CC1=C(CO)C(=O)O[C@@H]([C@@H](C)[C@H]2CC[C@H]3[C@@H]4C[C@H]5O[C@]56[C@@H](O)C=CC(=O)[C@]6(C)C4CC[C@]23C)C1 (some centres undefined) , residual activity observed: 78

###

Molecular target: UniProt:P54762
Sequence (P54762 whole entry, looked up): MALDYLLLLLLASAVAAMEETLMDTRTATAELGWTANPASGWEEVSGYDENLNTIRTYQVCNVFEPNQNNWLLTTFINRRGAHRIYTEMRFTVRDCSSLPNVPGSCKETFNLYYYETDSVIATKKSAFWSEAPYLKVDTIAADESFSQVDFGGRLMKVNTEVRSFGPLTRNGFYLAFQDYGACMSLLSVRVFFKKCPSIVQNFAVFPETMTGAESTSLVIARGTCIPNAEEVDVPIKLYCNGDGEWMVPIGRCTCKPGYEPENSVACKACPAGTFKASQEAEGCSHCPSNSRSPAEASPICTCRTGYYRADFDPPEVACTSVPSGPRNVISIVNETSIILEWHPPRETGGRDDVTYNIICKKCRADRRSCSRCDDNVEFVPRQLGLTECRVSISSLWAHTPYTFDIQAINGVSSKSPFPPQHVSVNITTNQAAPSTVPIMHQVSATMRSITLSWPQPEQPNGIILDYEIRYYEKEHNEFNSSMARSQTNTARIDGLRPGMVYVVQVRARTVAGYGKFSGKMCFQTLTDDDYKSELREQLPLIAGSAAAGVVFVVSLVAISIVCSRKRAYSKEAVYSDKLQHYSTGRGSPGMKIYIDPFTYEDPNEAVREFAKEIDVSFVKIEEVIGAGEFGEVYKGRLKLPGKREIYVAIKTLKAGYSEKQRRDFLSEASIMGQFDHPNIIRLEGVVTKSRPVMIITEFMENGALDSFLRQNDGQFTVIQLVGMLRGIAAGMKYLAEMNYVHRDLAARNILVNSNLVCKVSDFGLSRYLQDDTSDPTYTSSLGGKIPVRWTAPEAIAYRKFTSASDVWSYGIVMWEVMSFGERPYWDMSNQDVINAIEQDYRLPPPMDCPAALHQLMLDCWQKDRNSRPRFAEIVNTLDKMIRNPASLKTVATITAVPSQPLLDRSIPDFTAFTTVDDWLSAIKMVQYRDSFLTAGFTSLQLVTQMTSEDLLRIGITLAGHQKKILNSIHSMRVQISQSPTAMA
Assay: radiometric filter-binding kinase assay
Conditions: compound 0.1 µM
Kindly supply the reported residual activity values for the records listed here.
Give the value, in units of %, as a plain number.

compound `CN(C)C/C=C/C(=O)Nc1cccc(C(=O)Nc2ccc(Nc3nccc(-c4cccnc4)n3)cc2)c1` , residual activity observed: 93

compound `O=C(Nc1nc2cc(C(F)(F)F)cc(NC3CC3)n2n1)c1cccnc1` , residual activity observed: 120

compound `COc1ccc(N(C(=O)Nc2c(C)cccc2C)c2cc(Nc3ccc(N4CCN(C)CC4)cc3)ncn2)c(OC)c1` , residual activity observed: 49

compound CC1=C(CO)C(=O)O[C@@H]([C@@H](C)[C@H]2CC[C@H]3[C@@H]4C[C@H]5O[C@]56[C@@H](O)C=CC(=O)[C@]6(C)C4CC[C@]23C)C1 (stereo not given in full) , residual activity observed: 105

compound `NC(=O)c1cc(-c2ccnc(NC3CCCCC3)c2)nc(N2CCNCC2)c1` , residual activity observed: 96

###

Kindly supply the reported residual activity values for the records listed here.
System: ROCK2 (rat)
Assay: radiometric filter-binding kinase assay
Settings: compound 0.1 µM; accession and sequence are those of the human protein
Give the value, in units of %, as a plain number.

compound `NC(=O)c1cc(-c2ccnc(NC3CCCCC3)c2)nc(N2CCNCC2)c1` , residual activity observed: 99

compound `c1ccc2c(-c3cnn4cc(-c5ccc(N6CCNCC6)cc5)cnc34)ccnc2c1` , residual activity observed: 98

compound `O=C(Nc1ccccc1-c1cn2c(CN3CCNCC3)csc2n1)c1cnc2ccccc2n1` , residual activity observed: 100

compound COc1cc(O)c2c(c1)[C@H]1OC1C[C@H](O)[C@H](O)C(=O)/C=C\C[C@H](C)OC2=O (stereo not given in full) , residual activity observed: 94

compound `Cc1ccc(Sc2cnc(Nc3cccc(Br)n3)s2)cc1C(=O)N1CCN(C(=O)CN)CC1` , residual activity observed: 90

###

Target: PAK4 (human) (UniProt O96013)
Sequence (O96013 whole entry, looked up): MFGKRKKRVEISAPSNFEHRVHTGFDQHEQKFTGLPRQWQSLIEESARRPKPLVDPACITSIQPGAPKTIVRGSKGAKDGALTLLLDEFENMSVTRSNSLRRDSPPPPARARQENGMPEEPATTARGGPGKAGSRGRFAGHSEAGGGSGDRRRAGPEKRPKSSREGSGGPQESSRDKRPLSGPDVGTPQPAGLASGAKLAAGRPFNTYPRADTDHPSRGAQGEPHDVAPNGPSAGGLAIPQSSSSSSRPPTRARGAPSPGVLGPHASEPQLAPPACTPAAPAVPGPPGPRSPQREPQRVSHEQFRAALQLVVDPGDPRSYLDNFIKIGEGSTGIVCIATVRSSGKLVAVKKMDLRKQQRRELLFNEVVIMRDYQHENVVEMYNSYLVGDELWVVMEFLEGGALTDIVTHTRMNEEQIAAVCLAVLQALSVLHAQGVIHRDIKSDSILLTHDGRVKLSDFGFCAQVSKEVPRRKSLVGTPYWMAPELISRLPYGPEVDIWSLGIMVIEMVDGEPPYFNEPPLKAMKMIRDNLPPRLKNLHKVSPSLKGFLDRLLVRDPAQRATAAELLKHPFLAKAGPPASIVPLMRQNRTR
Test: radiometric filter-binding kinase assay
Conditions: compound 0.1 µM
Kindly supply the reported residual activity values for the records listed here.
Give the value, in units of %, as a plain number.

compound `NC(=O)Nc1ccc2c(c1)/C(=C/c1cc(-c3cccnc3)c[nH]1)C(=O)N2` , residual activity observed: 64

compound `COc1ccc(N(C(=O)Nc2c(C)cccc2C)c2cc(Nc3ccc(N4CCN(C)CC4)cc3)ncn2)c(OC)c1` , residual activity observed: 97

compound CC1=C(CO)C(=O)O[C@@H]([C@@H](C)[C@H]2CC[C@H]3[C@@H]4C[C@H]5O[C@]56[C@@H](O)C=CC(=O)[C@]6(C)C4CC[C@]23C)C1 (some centres undefined) , residual activity observed: 94

compound `CN1CCN(CCOc2cc(OC3CCOCC3)c3c(Nc4c(Cl)ccc5c4OCO5)ncnc3c2)CC1` , residual activity observed: 99

compound `NC(=O)c1cc2c(-c3cccc(-c4ccccc4)c3)cnc(N)c2s1` , residual activity observed: 65

compound `O=C(Nc1ccccc1-c1cn2c(CN3CCNCC3)csc2n1)c1cnc2ccccc2n1` , residual activity observed: 83

compound `O=C(NCCCNc1nc(Nc2cccc(CN3CCOCC3)c2)ncc1C1CC1)C1CCC1` , residual activity observed: 100

compound `CN(C)C/C=C/C(=O)Nc1cccc(C(=O)Nc2ccc(Nc3nccc(-c4cccnc4)n3)cc2)c1` , residual activity observed: 84

compound COc1cc(O)c2c(c1)[C@H]1OC1C[C@H](O)[C@H](O)C(=O)/C=C\C[C@H](C)OC2=O (some centres undefined) , residual activity observed: 100

compound `O=C(Nc1nc2cc(C(F)(F)F)cc(NC3CC3)n2n1)c1cccnc1` , residual activity observed: 98

compound `O=C(O)c1ccc(-c2c[nH]c3ncc(-c4ccccc4)cc23)cc1C1CCCC1` , residual activity observed: 96

compound `CCc1cncnc1N1CCN(Cc2nc3cc(C(F)(F)F)ccc3[nH]2)CC1` , residual activity observed: 93

compound `c1ccc2c(-c3cnn4cc(-c5ccc(N6CCNCC6)cc5)cnc34)ccnc2c1` , residual activity observed: 82

compound `Cc1ccc(Sc2cnc(Nc3cccc(Br)n3)s2)cc1C(=O)N1CCN(C(=O)CN)CC1` , residual activity observed: 69

compound COc1ccc2c(c1)c1c3c(c4c5ccccc5n(C)c4c1n2CC(O)CN(C)C)C(=O)NC3=O (centres undefined) , residual activity observed: 99

compound `Cc1cccc(-c2nn(C(=S)Nc3ccccc3)cc2-c2ccnc3ccccc23)n1` , residual activity observed: 89

compound `O=C(N[C@@H](COc1ccc2[nH]c(=O)[nH]c2c1)c1ccccc1)c1cccn(Cc2ccc(F)c(F)c2)c1=O` , residual activity observed: 102

compound `CCCCCc1ccc(/C=C/[C@H](O)[C@@H](CO)NC)cc1` , residual activity observed: 91

compound `Cc1ccc(-c2ccc3c(ccc4sc5c(c43)NC[C@@H](C)NC5=O)n2)cn1` , residual activity observed: 103

###

Kindly supply the reported residual activity values for the records listed here.
Target: MARK2 (human) (UniProt Q7KZI7)
Sequence (Q7KZI7 whole entry, looked up): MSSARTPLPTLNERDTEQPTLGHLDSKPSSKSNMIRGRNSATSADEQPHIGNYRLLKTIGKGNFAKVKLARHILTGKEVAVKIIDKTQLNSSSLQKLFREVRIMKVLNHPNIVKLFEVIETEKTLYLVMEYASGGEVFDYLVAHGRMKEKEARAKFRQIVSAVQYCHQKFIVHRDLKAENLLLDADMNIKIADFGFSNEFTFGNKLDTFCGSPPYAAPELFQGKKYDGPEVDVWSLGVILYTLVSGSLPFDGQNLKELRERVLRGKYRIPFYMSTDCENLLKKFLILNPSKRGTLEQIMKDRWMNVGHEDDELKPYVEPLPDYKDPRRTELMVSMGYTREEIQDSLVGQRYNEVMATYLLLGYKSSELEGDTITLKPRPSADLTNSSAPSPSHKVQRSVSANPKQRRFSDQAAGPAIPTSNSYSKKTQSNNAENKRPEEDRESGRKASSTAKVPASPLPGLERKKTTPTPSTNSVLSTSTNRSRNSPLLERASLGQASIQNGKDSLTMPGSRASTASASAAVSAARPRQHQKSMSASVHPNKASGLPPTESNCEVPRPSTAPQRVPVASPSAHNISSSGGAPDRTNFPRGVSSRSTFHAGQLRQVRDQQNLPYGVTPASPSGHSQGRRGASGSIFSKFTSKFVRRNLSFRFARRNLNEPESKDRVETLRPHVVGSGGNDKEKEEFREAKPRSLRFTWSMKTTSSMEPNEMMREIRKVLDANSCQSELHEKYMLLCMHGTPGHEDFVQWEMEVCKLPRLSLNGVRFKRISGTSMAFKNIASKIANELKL
Assay: radiometric filter-binding kinase assay
Details: compound 0.1 µM
Give the value, in units of %, as a plain number.

molecule `NC1(c2ccc(-c3nc4ccn5c(=O)[nH]nc5c4cc3-c3ccccc3)cc2)CCC1` , residual activity observed: 102

molecule `O=C(N[C@@H](COc1ccc2[nH]c(=O)[nH]c2c1)c1ccccc1)c1cccn(Cc2ccc(F)c(F)c2)c1=O` , residual activity observed: 105

molecule `Cc1cc(NC(=O)c2cccc(NC(=O)/C=C/CN(C)C)c2)ccc1Nc1nccc(-c2cccnc2)n1` , residual activity observed: 99

molecule `COc1ccc(N(C(=O)Nc2c(C)cccc2C)c2cc(Nc3ccc(N4CCN(C)CC4)cc3)ncn2)c(OC)c1` , residual activity observed: 90

molecule `NC(=O)c1cc2c(-c3cccc(-c4ccccc4)c3)cnc(N)c2s1` , residual activity observed: 103

molecule CNC(=O)C1[C@H]2O[C@@](C)([C@@H]1N)n1c3ccccc3c3c4c(c5c6ccccc6n2c5c31)C(=O)NC4 (some centres undefined) , residual activity observed: 5

molecule `CN(C)C/C=C/C(=O)Nc1cccc(C(=O)Nc2ccc(Nc3nccc(-c4cccnc4)n3)cc2)c1` , residual activity observed: 94

molecule `O=C(O)c1ccc(-c2c[nH]c3ncc(-c4ccccc4)cc23)cc1C1CCCC1` , residual activity observed: 88

molecule `CCn1c(-c2nonc2N)nc2cncc(CNC3CCNCC3)c21` , residual activity observed: 99

###

Target: CSNK1D (human)
Test: radiometric filter-binding kinase assay
Settings: compound 1.0 µM
Parameter: residual activity (%)
Give the value, in units of %, as a plain number.

molecule `O=C(NOC[C@H](O)CO)c1ccc(F)c(F)c1Nc1ccc(I)cc1Cl` , residual activity observed: 89

molecule `O=c1c(O)c(-c2ccc(O)c(O)c2)oc2cc(O)c(O)c(O)c12` , residual activity observed: 90

molecule `Oc1ccc2ccccc2c1SSc1c(O)ccc2ccccc12` , residual activity observed: 96

molecule `Cc1nc(-c2ccc(OCC(C)C)c(C#N)c2)sc1C(=O)O` , residual activity observed: 79

molecule `O=C(Nc1cccnc1)c1cc(-c2ccnc(F)c2)ccc1OCc1ccccc1` , residual activity observed: 107

molecule `N#Cc1c(C2CCNCC2)cc(-c2c(O)cccc2OCC2CC2)nc1N` , residual activity observed: 86

molecule `O=C(O)c1ccc(-c2c[nH]c3ncc(-c4ccccc4)cc23)cc1C1CCCC1` , residual activity observed: 12

molecule `CC(C)(C#N)c1ccc(N2C(=O)OCc3cnc4ccc(-c5cnc6ccccc6c5)cc4c32)cc1` , residual activity observed: 92

molecule `CCCC(CCC)C(=O)O` , residual activity observed: 108

molecule `COc1ccc(-n2ncc3cnc(Nc4cc(OC)c(OC)c(OCCCN5CCN(C)CC5)c4)nc32)cc1` , residual activity observed: 69

molecule `Cc1ccc(-c2ccc3c(ccc4sc5c(c43)NC[C@@H](C)NC5=O)n2)cn1` , residual activity observed: 96

molecule `CN1C(=O)[C@@H](Cc2c[nH]c3ccccc23)NC1=S` , residual activity observed: 94

molecule `C[C@H]1CCCC(=O)CCC/C=C/c2cc(O)cc(O)c2C(=O)O1` , residual activity observed: 99

molecule CNC(=O)C1[C@H]2O[C@@](C)([C@@H]1N)n1c3ccccc3c3c4c(c5c6ccccc6n2c5c31)C(=O)NC4 (stereo partly specified) , residual activity observed: 96

molecule `Cc1ccc(Sc2cnc(Nc3cccc(Br)n3)s2)cc1C(=O)N1CCN(C(=O)CN)CC1` , residual activity observed: 87

molecule `COc1ccc(N(C(=O)Nc2c(C)cccc2C)c2cc(Nc3ccc(N4CCN(C)CC4)cc3)ncn2)c(OC)c1` , residual activity observed: 79

molecule `CCCCCc1ccc(/C=C/[C@H](O)[C@@H](CO)NC)cc1` , residual activity observed: 87

molecule `Cc1cc(NC(=O)c2cccc(NC(=O)/C=C/CN(C)C)c2)ccc1Nc1nccc(-c2cccnc2)n1` , residual activity observed: 57

molecule `O=C(Nc1ccccc1-c1cn2c(CN3CCNCC3)csc2n1)c1cnc2ccccc2n1` , residual activity observed: 106

molecule `O=C1NC(=S)N[C@@H]1Cc1c[nH]c2ccccc12` , residual activity observed: 105

molecule `COc1cc2ncn(-c3cc(OCc4ccccc4S(C)(=O)=O)c(C#N)s3)c2cc1OC` , residual activity observed: 89
